Tested on: Alopecurus myosuroides (ALOMY)
Assay: Example B post-emergence herbicidal test, ALOMY
Type: in vivo
Conditions: Alopecurus myosuroides, 312 h, rate 250 g/ha, evaluated after 13 days, scale 0-100, read-out: Post-emergence activity ALOMY (100=total damage to plant; 0=no damage to plant)
Method: Seeds of a variety of test species were sown in standard soil in pots. […] After 13 days for pre and post-emergence, the test was evaluated (100=total damage to plant; 0=no damage to plant). […]
# key: entry, value: pest or weed control at 250 g/ha
Kindly answer with a numeric value in %, unit omitted.

Cc1cc(-c2ccc(F)cc2)cc(C)c1C1C(=O)CC(CC2CCOC2)C1=O (stereo not shown); 100
Cc1cc(-c2ccc(F)cc2)cc(C)c1C1C(=O)C/C(=C\C2CCOCC2)C1=O (stereo not shown); 90
Cc1cc(C)c(C2C(=O)CC(CC3CCN(C(=O)C(F)(F)F)CC3)C2=O)c(C)c1 (stereo not shown); 90

Using the record for COC(=O)N1CCC(/C=C2\CC(=O)C(c3c(C)cc(C)cc3C)C2=O)C1 (stereo not shown) , report its pest or weed control at 250 g/ha.
90
